# TARGET_DESC: NOP receptor (Homo sapiens, UniProt P41146)
# Construct: expressed in transfected cells
# Sequence (P41146 whole entry): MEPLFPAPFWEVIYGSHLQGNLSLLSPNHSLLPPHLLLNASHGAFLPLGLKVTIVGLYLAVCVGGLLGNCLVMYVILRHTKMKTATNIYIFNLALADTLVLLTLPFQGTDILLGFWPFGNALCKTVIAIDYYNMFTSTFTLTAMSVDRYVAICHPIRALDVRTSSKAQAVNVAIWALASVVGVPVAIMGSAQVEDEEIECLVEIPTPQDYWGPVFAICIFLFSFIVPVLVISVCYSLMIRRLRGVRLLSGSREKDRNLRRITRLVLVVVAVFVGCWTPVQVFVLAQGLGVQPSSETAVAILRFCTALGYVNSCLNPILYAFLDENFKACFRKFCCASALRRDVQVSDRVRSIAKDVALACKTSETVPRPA
# METHOD_NOTES: [35S]GTPγS binding stimulation (agonist), CHO membranes
# Type: biochemical
# MEASUREMENT_CONDITIONS: [35S]GTPγS stimulation relative to standard agonist N/OFQ
OBSERVABLE: NOP % stim (%)
// units = %; emit number, no label

### Prompt May I ask what NOP % stim has been recorded for O=C(Cc1ccc(Cl)cc1)O[C@@]12CCC(=O)[C@@H]3Oc4c(O)ccc5c4[C@@]31CCN(CC1CC1)C2C5 ?
### Response 18.9

### Prompt May I ask what NOP % stim has been recorded for O=C(Cc1ccccc1)O[C@@]12CCC(=O)[C@@H]3Oc4c(O)ccc5c4[C@@]31CCN(CC1CC1)[C@@H]2C5 ?
### Response 28.1

### Prompt May I ask what NOP % stim has been recorded for Cc1ccccc1CC(=O)O[C@@]12CCC(=O)[C@@H]3Oc4c(O)ccc5c4[C@@]31CCN(CC1CC1)[C@@H]2C5 ?
### Response 21.1

### Prompt May I ask what NOP % stim has been recorded for COc1ccc(CC(=O)O[C@@]23CCC(=O)[C@@H]4Oc5c(O)ccc6c5[C@@]42CCN(CC2CC2)[C@@H]3C6)cc1 ?
### Response 8.9

### Prompt May I ask what NOP % stim has been recorded for O=C(Cc1ccc2c(c1)OCO2)O[C@@]12CCC(=O)[C@@H]3Oc4c(O)ccc5c4[C@@]31CCN(CC1CC1)[C@@H]2C5 ?
### Response 43.5

### Prompt May I ask what NOP % stim has been recorded for COc1cccc(CC(=O)O[C@@]23CCC(=O)[C@@H]4Oc5c(O)ccc6c5[C@@]42CCN(CC2CC2)C3C6)c1 ?
### Response 36.1

### Prompt May I ask what NOP % stim has been recorded for COc1ccccc1CC(=O)O[C@@]12CCC(=O)[C@@H]3Oc4c(O)ccc5c4[C@@]31CCN(CC1CC1)[C@@H]2C5 ?
### Response 40.8

### Prompt May I ask what NOP % stim has been recorded for Cc1ccc(CC(=O)O[C@@]23CCC(=O)[C@@H]4Oc5c(O)ccc6c5[C@@]42CCN(CC2CC2)[C@@H]3C6)cc1 ?
### Response 22.3
